Target: purified VDAC1 (Homo sapiens, UniProt P21796)
Sequence (P21796 whole entry, species assumed): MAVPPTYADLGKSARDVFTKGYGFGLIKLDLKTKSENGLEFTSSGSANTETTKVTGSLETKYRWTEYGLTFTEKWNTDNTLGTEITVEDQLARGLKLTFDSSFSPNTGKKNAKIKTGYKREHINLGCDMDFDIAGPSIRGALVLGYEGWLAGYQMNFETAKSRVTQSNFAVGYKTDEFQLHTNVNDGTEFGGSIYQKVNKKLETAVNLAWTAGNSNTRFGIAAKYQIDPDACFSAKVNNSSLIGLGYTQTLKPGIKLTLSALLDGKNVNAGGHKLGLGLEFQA
Experiment: Glass-bound peptide array probed with purified VDAC1 and anti-VDAC1 antibodies
Assay type: binding
Set-up: key: +: low; ++: medium; +++: high
Conditions: glass-bound peptide array incubated 4 h with purified VDAC1 (64 nM); antibody against VDAC1 amino acids 150-250; chemiluminescence
Measure Name: Spot intensity, detected using anti-VDAC1 internal sequence

| Sequence Text | Result |
| --- | --- |
| LVFHSFGGGTGSGFTSLLMERLSVD [2A3, array peptide from tubulin alpha 1b] | + |
| TDVLLLDVTPLSLGIETLGGVFTKL [2O19, array peptide from HSP-70] | + |
| IEIESFYEGEDFSETLTRAKFEELN [2L4, array peptide from BiP1] | ++ |
| SILEIQKGVFEVKSTNGDTFLGGED [2N23, array peptide from HSP-70] | +++ |
| AIYDICRRNLDIERPTYTNLNRLIS [2A11, array peptide from tubulin alpha 1b] | + |
| ELEEIVQPIISKLYGSAGPPPTGEE [2M15, array peptide from BiP1] | +++ |
| GNLANVIRYFPTQALNFAFKDKYKQ [1F20, array peptide from ANT3] | + |
| IKKKEERADLIAYLKKATNE [1D16, array peptide from cytochrome c] | + |
